Quick list: pIC50 per entry.
system: SCD1 (Homo sapiens)
Construct: host or cells: S. cerevisiae ole1Δ strain (W303 pdr1Δ pdr3Δ background), plasmid pRS316 with TDH3 promoter and CYC1 terminator
Sequence (O00767 whole entry): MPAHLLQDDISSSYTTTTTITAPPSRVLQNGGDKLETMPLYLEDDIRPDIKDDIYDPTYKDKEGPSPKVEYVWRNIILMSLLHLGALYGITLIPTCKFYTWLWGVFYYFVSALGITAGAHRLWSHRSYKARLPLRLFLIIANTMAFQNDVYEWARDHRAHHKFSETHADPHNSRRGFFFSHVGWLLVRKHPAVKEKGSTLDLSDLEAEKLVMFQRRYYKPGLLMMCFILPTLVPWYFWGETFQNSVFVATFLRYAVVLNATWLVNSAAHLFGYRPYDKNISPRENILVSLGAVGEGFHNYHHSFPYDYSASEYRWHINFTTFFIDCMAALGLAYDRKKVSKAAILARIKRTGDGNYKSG
measurementProtocol: Growth inhibition of humanized yeast strain expressing SCD1 as sole desaturase
Type: cell-based
runParameters: humanized yeast strain expressing SCD1
pIC50: −log10 of the molar value.

// recorded pIC50 for CCOc1cnc(-c2noc(C3CCN(C(=O)CNC(=O)c4ccccc4)CC3)n2)cc1OC : < 4.35

// recorded pIC50 for O=C(NCC(=O)N1CCC(c2nc(-c3ccc(Cl)c(Cl)c3)no2)CC1)c1ccccc1 : 4.47

// recorded pIC50 for Cc1nn(C)c2cc(-c3noc(C4CCN(C(=O)[C@H]5CC(=O)N(c6ccc(C#N)cc6)C5)CC4)n3)ccc12 : ≤ 4.35

// recorded pIC50 for CCN1C(=O)CC(C)c2ccc(-c3noc(C4CCN(C(=O)CNC(=O)c5ccccc5)CC4)n3)cc21 (stereo not shown) : < 4.35

// recorded pIC50 for O=C(NCC(=O)N1CCC(c2nc(-c3ccc4ccccc4n3)no2)CC1)c1ccccc1 : < 4.35

// recorded pIC50 for Cc1nn(C)c2cc(-c3noc(C4CCN(C(=O)C5CN(C(=O)c6ccccc6)C5)CC4)n3)ccc12 : < 4.35

// recorded pIC50 for CCOc1cnc(-c2noc(C3CCN(C(=O)CNC(=O)c4ccccc4)CC3)n2)nc1OC : < 4.35

* * *

system: SCD5 (Homo sapiens, UniProt Q86SK9)
Construct: host or cells: S. cerevisiae ole1Δ strain (W303 pdr1Δ pdr3Δ background), plasmid pRS316 with TDH3 promoter and CYC1 terminator
Sequence (Q86SK9 1-330): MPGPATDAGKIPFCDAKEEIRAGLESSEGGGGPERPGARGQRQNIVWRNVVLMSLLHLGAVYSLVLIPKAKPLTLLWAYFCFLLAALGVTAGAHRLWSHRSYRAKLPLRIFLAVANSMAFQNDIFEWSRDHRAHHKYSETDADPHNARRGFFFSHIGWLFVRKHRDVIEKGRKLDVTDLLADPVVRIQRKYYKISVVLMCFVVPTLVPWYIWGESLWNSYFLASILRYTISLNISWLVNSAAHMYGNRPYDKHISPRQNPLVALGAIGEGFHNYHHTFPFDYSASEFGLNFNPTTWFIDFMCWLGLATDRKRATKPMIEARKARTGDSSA
measurementProtocol: Growth inhibition of humanized yeast strain expressing SCD5 as sole desaturase
Type: cell-based
runParameters: humanized yeast strain expressing SCD5
pIC50: −log10 of the molar value.
measuredQuantity: pIC50

// recorded pIC50 for Cc1nn(C)c2cc(-c3noc(C4CCN(C(=O)c5ccc(Cl)cc5)CC4)n3)ccc12 : < 4.35

---
// recorded pIC50 for CCOc1ccc(-c2noc(N3CCC(C(=O)N4CCO[C@@H](c5ccccc5)C4)CC3)n2)cc1OC : < 4.35

// recorded pIC50 for COc1ccc(-c2noc(C3CCN(C(=O)CNC(=O)C(C)C)CC3)n2)cc1OC : < 4.35

// recorded pIC50 for CCOc1ccc(-c2noc(C3CCN(C(=O)c4cnc(-c5ccccc5)[nH]4)CC3)n2)cc1OC : 4.39

// recorded pIC50 for Cc1nn(C)c2cc(-c3nsc(C4CCN(C(=O)OC(C)(C)C)CC4)n3)ccc12 [Compound 300] : < 4.35

// recorded pIC50 for CC(C)n1ncc2ccc(-c3noc(N4CCN(C(=O)c5ccccc5Cl)CC4)n3)cc21 : < 4.35

* * *

Quick list: SCD1 % Max Inhibition per entry.
system: SCD1 (Homo sapiens)
Construct: host or cells: S. cerevisiae ole1Δ strain (W303 pdr1Δ pdr3Δ background), plasmid pRS316 with TDH3 promoter and CYC1 terminator
measurementProtocol: Growth inhibition of humanized yeast strain expressing SCD1 as sole desaturase
Assay type: cell-based
runParameters: humanized yeast strain expressing SCD1
Report the value in % with no unit label.

Illustrative cases are given below, each with its answer.
// recorded SCD1 % Max Inhibition for O=C([C@H]1CC(=O)N(c2ccccc2)C1)N1CCC(c2nc(N3CC4(COC4)C3)no2)CC1 : 69.01

// recorded SCD1 % Max Inhibition for COC(=O)N1CCN(c2nc(-c3ccc4cnn(C(C)C)c4c3)no2)CC1 : 51.18

// recorded SCD1 % Max Inhibition for CCOc1ccc(-c2noc(C3CCN(C(=O)[C@H]4CN(c5ccccc5)C(=O)O4)CC3)n2)cc1OC : 79.55

---
// recorded SCD1 % Max Inhibition for COc1ccnc(C(=O)NCC(=O)N2CCC(c3nc(-c4ccc5c(C)nn(C)c5c4)no3)CC2)c1 : 74.48

// recorded SCD1 % Max Inhibition for COc1ccc(-c2noc(C3CCN(C(=O)C(C)NC(=O)c4ccccc4)CC3)n2)cc1OC (centres unmarked) : 98.15

// recorded SCD1 % Max Inhibition for Cc1nn(C)c2cc(-c3nsc(C4CCN(C(=O)OC(C)(C)C)CC4)n3)ccc12 : 78.1

// recorded SCD1 % Max Inhibition for COc1cccc(C(=O)NCC(=O)N2CCC(c3nc(-c4ccc5c(C)nn(C)c5c4)no3)CC2)n1 : 68.90

// recorded SCD1 % Max Inhibition for CC(C)n1cc2ccc(-c3noc(C4CCN(C(=O)C5CC(=O)N(c6ccccc6)C5)CC4)n3)cc2n1 (centres unmarked) : 102.85

* * *

system: SCD5 (Homo sapiens)
Construct: host or cells: S. cerevisiae ole1Δ strain (W303 pdr1Δ pdr3Δ background), plasmid pRS316 with TDH3 promoter and CYC1 terminator
measurementProtocol: Growth inhibition of humanized yeast strain expressing SCD5 as sole desaturase
Format: cell-based
runParameters: humanized yeast strain expressing SCD5
measuredQuantity: SCD5 % Max Inhibition (%)
Report the value in % with no unit label.

Illustrative cases are given below, each with its answer.
Record Cc1nn(C)c2cc(-c3noc(N4C[C@H]5CN(C(=O)CNC(=O)c6ccccc6)C[C@H]5C4)n3)ccc12 [Compound 207] ; system SCD5 (Homo sapiens); SCD5 % Max Inhibition = 72.56

Record Cn1c(=O)n(C)c2cc(-c3noc(C4CCN(C(=O)CNC(=O)c5ccccn5)CC4)n3)ccc21 [Compound 230] ; system SCD5 (Homo sapiens); SCD5 % Max Inhibition = 44.00

Record Cc1nn(C)c2cc(-c3noc(C4CCN(C(=O)CNC(=O)c5ccsc5)CC4)n3)ccc12 [Compound 222] ; system SCD5 (Homo sapiens); SCD5 % Max Inhibition = 1.92

Record CC(C)n1ncc2ccc(-c3noc(C4CCN(C(=O)COc5ccccc5)CC4)n3)cc21 [Compound 358] ; system SCD5 (Homo sapiens); SCD5 % Max Inhibition = 4.53

Record CCOc1ccc(-c2noc(C3CCN(C(=O)[C@H]4CCN(C(=O)c5ccccc5)C4)CC3)n2)cc1OC [Compound 234] ; system SCD5 (Homo sapiens); SCD5 % Max Inhibition = 76.83

---
Record Cc1nn(C)c2cc(-c3noc(C4CCN(C(=O)C(C)N5Cc6ccccc6C5=O)CC4)n3)ccc12 (stereo not drawn) [Compound 141] ; system SCD5 (Homo sapiens); SCD5 % Max Inhibition = 78.91

Record O=C(NCC(=O)N1CCC(c2nc(-c3ccc4nonc4c3)no2)CC1)c1ccccc1 [Compound 163] ; system SCD5 (Homo sapiens); SCD5 % Max Inhibition = 24.77

Record CC1(C)CC(=O)c2c(O)cc(OCC(=O)NCCc3nc(-c4ccccc4)no3)cc2O1 [Compound 487] ; system SCD5 (Homo sapiens); SCD5 % Max Inhibition = 70.73

Record COc1ccc(-c2noc(C3CCN(C(=O)CNCc4ccccc4)CC3)n2)cc1OC [Compound 30] ; system SCD5 (Homo sapiens); SCD5 % Max Inhibition = 74.17

Record Cc1nn(C)c2cc(-c3noc(C4CCN(C(=O)c5cccc(F)c5)CC4)n3)ccc12 [Compound 284] ; system SCD5 (Homo sapiens); SCD5 % Max Inhibition = 6.80

Record O=C(c1ccccc1)N1CCC(c2nc(N3CC4(COC4)C3)no2)CC1 [Compound 334] ; system SCD5 (Homo sapiens); SCD5 % Max Inhibition = 66.7

Record Cc1nn(C)c2cc(-c3noc(C4CCN(C(=O)CNC(=O)c5ccccc5)CC4)n3)ncc12 [Compound 114] ; system SCD5 (Homo sapiens); SCD5 % Max Inhibition = 77.66

Record COc1ccc(-c2noc(C3CCN(C(=O)CNC(=O)c4ccccc4OC)CC3)n2)cc1OC [Compound 144] ; system SCD5 (Homo sapiens); SCD5 % Max Inhibition = 84.27

Record CC(C)n1cc2ccc(-c3noc(C4CCN(C(=O)OC(C)(C)C)CC4)n3)cc2n1 [Compound 277] ; system SCD5 (Homo sapiens); SCD5 % Max Inhibition = 74.99

Record Cc1nn(C)c2cc(-c3noc(C4CCN(C(=O)[C@@H](CO)NC(=O)c5ccccc5)CC4)n3)ccc12 [Compound 186] ; system SCD5 (Homo sapiens); SCD5 % Max Inhibition = 73.51

These measurements were taken from patent US11873298B2.
